Experiment: Ratio of IC50 for antiproliferative activity against human HL-60 cells assessed as inhibition of cell growth under normoxia condition to IC50 for antiproliferative activity against human HL-60 cells assessed as inhibition of cell growth under hypoxia condition
Format: functional
Assign class by Ratio IC50: not lower than 4 means T; lower than 4 means F.

Can CCCCCCNc1n[n+]([O-])c2cc(C)ccc2[n+]1[O-] be said to have Ratio IC50 at or above 4?
F

Can [O-][n+]1nc(Nc2ccccc2)[n+]([O-])c2ccc(Cl)cc21 be said to have Ratio IC50 at or above 4?
T

Can CCNc1n[n+]([O-])c2cc(Cl)ccc2[n+]1[O-] be said to have Ratio IC50 at or above 4?
T

Can [O-][n+]1nc(Nc2ccccc2)[n+]([O-])c2ccccc21 be said to have Ratio IC50 at or above 4?
F

Can Cc1ccc2c(c1)[n+]([O-])nc(NCc1ccccc1)[n+]2[O-] be said to have Ratio IC50 at or above 4?
F

Can O=[N+]([O-])c1ccc2c(c1)[n+]([O-])nc(NCc1ccccc1)[n+]2[O-] be said to have Ratio IC50 at or above 4?
F

Can Nc1n[n+]([O-])c2ccccc2[n+]1[O-] [TIRAPAZAMINE] be said to have Ratio IC50 at or above 4?
F

Can Cc1ccc2c(c1)[n+]([O-])nc(NC1CCCCC1)[n+]2[O-] be said to have Ratio IC50 at or above 4?
T

Can [O-][n+]1nc(NCc2ccccc2)[n+]([O-])c2ccc(Cl)cc21 be said to have Ratio IC50 at or above 4?
F

Can [O-][n+]1nc(NCc2ccccc2)[n+]([O-])c2ccccc21 be said to have Ratio IC50 at or above 4?
T

---

Measured property: pIC50
Please note pIC50 is a logarithmic value: minus log10 of concentration in mol/L. Answer with that number alone.

Determine reported pIC50 for Cc1ccc(Nc2ncnn3ccc(C)c23)cc1O ; test system: Epidermal growth factor receptor (Homo sapiens).
Sequence (P00533 whole entry): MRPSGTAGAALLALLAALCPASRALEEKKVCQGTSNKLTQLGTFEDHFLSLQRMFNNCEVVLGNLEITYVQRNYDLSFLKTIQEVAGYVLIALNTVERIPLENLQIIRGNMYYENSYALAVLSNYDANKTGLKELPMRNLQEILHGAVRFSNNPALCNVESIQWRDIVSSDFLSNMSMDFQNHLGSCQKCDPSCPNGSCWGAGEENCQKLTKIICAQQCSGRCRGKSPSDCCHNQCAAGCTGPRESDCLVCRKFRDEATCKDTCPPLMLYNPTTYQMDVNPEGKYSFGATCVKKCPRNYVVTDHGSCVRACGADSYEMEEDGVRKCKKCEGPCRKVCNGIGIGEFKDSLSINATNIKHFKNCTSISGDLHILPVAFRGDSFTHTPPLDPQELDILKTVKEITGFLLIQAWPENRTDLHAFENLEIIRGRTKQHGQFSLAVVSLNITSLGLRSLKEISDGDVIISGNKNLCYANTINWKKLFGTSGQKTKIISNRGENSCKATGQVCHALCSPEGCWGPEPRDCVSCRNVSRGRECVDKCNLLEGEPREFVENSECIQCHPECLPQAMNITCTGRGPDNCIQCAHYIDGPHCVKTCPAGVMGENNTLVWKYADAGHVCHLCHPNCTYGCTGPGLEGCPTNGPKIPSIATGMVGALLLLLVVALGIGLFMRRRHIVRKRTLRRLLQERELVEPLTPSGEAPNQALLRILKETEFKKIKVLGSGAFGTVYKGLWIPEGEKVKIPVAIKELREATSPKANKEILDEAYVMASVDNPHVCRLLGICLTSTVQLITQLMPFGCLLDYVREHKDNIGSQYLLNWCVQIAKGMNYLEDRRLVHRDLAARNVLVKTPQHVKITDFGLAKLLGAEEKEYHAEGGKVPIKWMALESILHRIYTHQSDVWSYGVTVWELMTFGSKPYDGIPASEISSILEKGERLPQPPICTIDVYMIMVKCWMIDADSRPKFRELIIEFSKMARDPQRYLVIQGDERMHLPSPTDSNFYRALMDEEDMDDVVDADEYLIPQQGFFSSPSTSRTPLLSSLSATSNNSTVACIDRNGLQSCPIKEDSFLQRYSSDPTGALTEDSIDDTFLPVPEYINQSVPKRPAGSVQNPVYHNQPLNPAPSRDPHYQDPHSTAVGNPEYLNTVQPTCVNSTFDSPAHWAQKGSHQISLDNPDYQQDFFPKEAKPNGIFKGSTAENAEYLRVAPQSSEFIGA
7.18

Determine reported pIC50 for Cc1cc2c(Nc3ccc(C)c(O)c3)ncnn2c1 ; test system: Epidermal growth factor receptor (Homo sapiens).
6.39

Determine reported pIC50 for Cc1ccc(Nc2ncnn3cccc23)cc1O ; test system: Epidermal growth factor receptor (Homo sapiens).
5.84

---

Test system: KB
Assay: Antiproliferative activity against human KB cells assessed as inhibition of cell growth under hypoxia condition
Type: functional, cell-based
Measured property: IC50
In your response, put the unit directly after the numeric value.

Determine reported IC50 for CCCOCNc1n[n+]([O-])c2cc(OC)ccc2[n+]1[O-] ; test system: KB.
2.54 µM

Determine reported IC50 for [O-][n+]1nc(NCOCc2ccccc2)[n+]([O-])c2ccccc21 ; test system: KB.
4.14 µM

Determine reported IC50 for CCCCCOCNc1n[n+]([O-])c2cc(OC)ccc2[n+]1[O-] ; test system: KB.
2.51 µM

Determine reported IC50 for CCOCNc1n[n+]([O-])c2ccccc2[n+]1[O-] ; test system: KB.
4.09 µM

Determine reported IC50 for CCCCCCCOCNc1n[n+]([O-])c2ccccc2[n+]1[O-] ; test system: KB.
3.49 µM

Determine reported IC50 for CC(C)CCOCNc1n[n+]([O-])c2ccccc2[n+]1[O-] ; test system: KB.
2.11 µM
